Biological target: human ether-à-go-go-related gene (hERG) potassium channel (human);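 further: peak tail current of the secondary pulse compared with the same well before compound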
Assay: primary screen, population patch clamp on CHO cells stably expressing hERG; higher = less effect of the substance
In all, about 310,000 compounds went through this assay and about 14,000 (4.5%) showed an effect of 50% or more. The effect is printed as a negative number. The sample as a whole holds a higher share of strong results than the screen did.
OUTCOME MEASURE: hERG current change (%, negative = inhibition) at 10uM (%)
Numbers only, in %.

Here's what some known entries look like.
COc1cc(C(=O)NCc2nnc(SCC(=O)N3CCOCC3)o2)cc(OC)c1OC: 17.2
O=C(NCCS(=O)(=O)N1CCN(c2ccc(F)cc2)CC1)c1ccco1: -62.2
O=C(Cc1ccc(F)cc1)NCCS(=O)(=O)N1CCN(c2ccccc2)CC1: 5.42
COc1ccc(N2CCN(S(=O)(=O)CCNC(=O)c3ccco3)CC2)cc1: -9.43

From here, focus on the item given below.
Q: Hello, I am looking for reported hERG current change (%, negative = inhibition) at 10uM with human ether-à-go-go-related gene (hERG) potassium channel (human) for C[C@H]1COc2c(N3CCN(C)CC3)c(F)cc3c(=O)c(C(=O)O)cn1c23 . Could you help?
Result: 11.2

---

Target: human ether-à-go-go-related gene (hERG) potassium channel (human, UniProt Q12809);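 further: peak tail current of the secondary pulse compared with the same well before compound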
Sequence (Q12809 whole entry, looked up): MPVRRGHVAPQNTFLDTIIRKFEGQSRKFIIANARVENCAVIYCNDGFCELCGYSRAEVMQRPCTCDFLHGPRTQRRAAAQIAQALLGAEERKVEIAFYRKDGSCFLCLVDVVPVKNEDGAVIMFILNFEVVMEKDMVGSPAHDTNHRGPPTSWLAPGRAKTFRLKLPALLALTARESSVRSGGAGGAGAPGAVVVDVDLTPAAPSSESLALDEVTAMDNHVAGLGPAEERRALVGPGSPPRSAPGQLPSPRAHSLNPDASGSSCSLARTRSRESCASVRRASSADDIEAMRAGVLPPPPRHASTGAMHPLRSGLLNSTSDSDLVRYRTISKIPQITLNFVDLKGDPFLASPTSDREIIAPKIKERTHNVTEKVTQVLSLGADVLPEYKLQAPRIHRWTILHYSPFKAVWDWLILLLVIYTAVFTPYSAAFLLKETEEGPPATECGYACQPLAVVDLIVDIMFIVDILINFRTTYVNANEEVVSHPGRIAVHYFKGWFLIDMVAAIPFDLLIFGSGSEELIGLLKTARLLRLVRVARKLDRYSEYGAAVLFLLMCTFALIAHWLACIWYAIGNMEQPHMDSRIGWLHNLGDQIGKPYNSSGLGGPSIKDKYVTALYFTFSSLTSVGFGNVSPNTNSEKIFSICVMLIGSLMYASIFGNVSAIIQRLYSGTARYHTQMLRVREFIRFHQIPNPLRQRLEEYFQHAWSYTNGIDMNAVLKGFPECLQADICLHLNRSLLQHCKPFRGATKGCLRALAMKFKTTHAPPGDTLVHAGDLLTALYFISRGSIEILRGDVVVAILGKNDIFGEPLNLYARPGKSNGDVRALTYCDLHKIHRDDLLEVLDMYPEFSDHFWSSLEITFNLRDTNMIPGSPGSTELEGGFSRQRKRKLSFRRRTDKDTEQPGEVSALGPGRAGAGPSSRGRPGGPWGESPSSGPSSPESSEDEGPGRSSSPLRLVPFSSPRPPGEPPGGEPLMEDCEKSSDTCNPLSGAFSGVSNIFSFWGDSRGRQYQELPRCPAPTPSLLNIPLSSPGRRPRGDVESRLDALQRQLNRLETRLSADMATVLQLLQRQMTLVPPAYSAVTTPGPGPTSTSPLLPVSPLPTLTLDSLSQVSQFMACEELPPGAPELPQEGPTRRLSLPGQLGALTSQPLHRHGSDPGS
Assay: primary screen, population patch clamp on CHO cells stably expressing hERG; higher = less effect of the substance
The campaign covered roughly 310,000 compounds. About 14,000 (4.5%) showed an effect of 50% or more. Effects have a minus sign here. The full list was thinned out, with strong results kept by preference.
Would you kindly list hERG current change (%, negative = inhibition) at 10uM for each of these compounds?
Numbers only, in %.

Some solved entries appear below for comparison.
Cc1ccc(N2C(=O)C3CC(c4ccccc4)=C4C5C=CC(C6C(=O)N(c7ccc(C)cc7)C(=O)C56)C4C3C2=O)cc1 (stereo not shown): -73.6
Cc1ccc(N2C(=O)C3C4CC(=O)C(c5ccccc54)C3C2=O)cc1 (stereo not shown): 2.69
COC(=O)c1[nH]c2ccccc2c1NC(=O)CN1CCN(C(=O)c2ccco2)CC1: -32.8

Attention now turns to another entry.
Q: Record request: hERG current change (%, negative = inhibition) at 10uM value, item Cc1ccc(N2C(=O)C3CC(c4ccccc4)=C4C5C=CC(C6C(=O)N(c7ccc(C)cc7C)C(=O)C56)C4C3C2=O)c(C)c1 (stereo not shown)
Result: 7.82

---

Provide the reported hERG current change (%, negative = inhibition) at 10uM of each item.
Target: human ether-à-go-go-related gene (hERG) potassium channel (human);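 further: peak tail current of the secondary pulse compared with the same well before compound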
Test: primary screen, population patch clamp on CHO cells stably expressing hERG; higher = less effect of the substance
Out of some 310,000 compounds screened, about 14,000 (4.5%) showed an effect of 50% or more. The effect is printed as a negative number. The sample as a whole holds a higher share of strong results than the screen did.
Numbers only, in %.

# count of solved cases: 8
CCOC(=O)c1[nH]c(Cc2[nH]c(C(=O)OCC)c(C)c2CCC(=O)OC)c(CCC(=O)OC)c1C: 3.71
COc1ccc(S(=O)(=O)NCCc2cc3ccc(C)c(C)c3[nH]c2=O)cc1: 17.2
CCOc1ccc(-c2nnn(CC(=O)c3ccc4c(c3)OCCO4)n2)cc1OCC: -1.86
CCOC(=O)c1c(CC(C)C)csc1NC(C)=O: -2.62
Nc1ccc(C(=O)N2CCCC2)cc1CS(=O)(=O)c1ccc(Cl)cc1: -4.18
C[n+]1ccccc1COc1ccc(C(C)(C)C)cc1.Cc1ccc(S(=O)(=O)[O-])cc1: 2.84
CC(CC(=O)NC1CCCCC1)S(=O)(=O)c1ccc2c(c1)CCN2C(=O)C1CC1 (stereo not drawn): 28.2
COc1ccc(N(CC(=O)NCc2cccc(OC)c2)S(=O)(=O)c2c(C)noc2C)cc1: -41.1

Okay, now this compound:
Q: May I ask what hERG current change (%, negative = inhibition) at 10uM has been recorded for Cc1sc2nc(SCC(=O)NCc3ccco3)n(-c3ccccc3)c(=O)c2c1C ?
Result: 8.63
